- System: HUVEC cells
- TEST_METHOD_NOTES: Cell Titer-Glo anti-proliferation, normal cells HUVEC
- Type: cell-based
Recorded IC50, one value per entry.

Example results:
{"COMPOUND": "C=CCn1c(=O)c2cnc(Nc3ccc(N4CCC(N(C)C)CC4)cc3)nc2n1-c1ccc2c(n1)[C@@](C)(O)C1(CC2)CC1 [Compound 65a]", "IC50": "> 10 µM"}
{"COMPOUND": "C=CCn1c(=O)c2cnc(Nc3ccc(N4CCN(C)CC4)cc3)nc2n1-c1ccc2c(n1)[C@H](O)C1(CC2)CC1 (single isomer, unassigned)", "IC50": "> 10 µM"}
{"COMPOUND": "C=CCn1c(=O)c2cnc(Nc3ccc(N4CC5CC(C4)N5C)cc3)nc2n1-c1ccc2c(n1)[C@@](C)(O)C1(CC2)CC1", "IC50": "> 10 µM"}
{"COMPOUND": "C=CCn1c(=O)c2cnc(Nc3ccc(N4CCC(N(C)C)CC4)c(C)c3)nc2n1-c1ccc2c(n1)[C@@](C)(O)C1(CC2)CC1 (single isomer, unassigned) [Compound 52a]", "IC50": "3.83 µM"}

Here is the next item to consider.
Q. Report IC50 for C=CCn1c(=O)c2cnc(Nc3ccc(N4CCC(N(C)C)CC4)c(C)c3)nc2n1-c1ccc2c(n1)C(C)(O)C1(CC1)C2 (racemic) please.
A. > 10 µM

* * *

Lab note: pIC50 readings collected with Wee1 protein (Homo sapiens (Human), UniProt P30291) for the following compounds.
Sequence (P30291 whole entry): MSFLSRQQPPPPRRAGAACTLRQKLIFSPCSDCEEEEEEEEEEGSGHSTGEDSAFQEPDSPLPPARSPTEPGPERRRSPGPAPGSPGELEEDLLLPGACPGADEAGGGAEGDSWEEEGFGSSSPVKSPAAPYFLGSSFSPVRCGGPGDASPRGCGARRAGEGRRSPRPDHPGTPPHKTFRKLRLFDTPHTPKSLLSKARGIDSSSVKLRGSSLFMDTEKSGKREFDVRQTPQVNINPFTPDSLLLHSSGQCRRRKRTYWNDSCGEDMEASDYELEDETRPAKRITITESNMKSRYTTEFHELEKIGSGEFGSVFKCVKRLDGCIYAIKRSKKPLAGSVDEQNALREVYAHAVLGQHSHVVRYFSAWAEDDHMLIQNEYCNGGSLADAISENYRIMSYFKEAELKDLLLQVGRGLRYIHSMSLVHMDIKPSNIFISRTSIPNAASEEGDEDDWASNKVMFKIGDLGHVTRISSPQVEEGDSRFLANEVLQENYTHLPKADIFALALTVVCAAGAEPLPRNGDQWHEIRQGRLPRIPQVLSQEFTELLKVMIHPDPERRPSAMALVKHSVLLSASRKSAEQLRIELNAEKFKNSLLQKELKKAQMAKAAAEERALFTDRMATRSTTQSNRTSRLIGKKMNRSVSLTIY
pIC50: −log10 of the molar value.

Q. Provide value of pIC50 for this record tested with Wee1 protein (Homo sapiens (Human), UniProt P30291): C=CCn1c(=O)c2cnc(Nc3ccc(N4CC5CC(C4)N5C)cc3)nc2n1-c1ccc2c(n1)[C@@](C)(O)C1(CC2)CC1
A. 8.00 to 8.30

* * *

- Tested on: HK2 cells
- TEST_METHOD_NOTES: Cell Titer-Glo anti-proliferation, normal cells HK2
- Assay type: cell-based
Recorded pIC50, one value per entry.
# pIC50 is unitless: minus log10 of the molar concentration; print number only

{"COMPOUND": "C=CCn1c(=O)c2cnc(Nc3ccc(N4CCN(C)CC4)cc3)nc2n1-c1ccc2c(n1)[C@@](O)(CC)CC2 [ZnC3, reference compound]", "pIC50": 6.47}
{"COMPOUND": "C=CCn1c(=O)c2cnc(Nc3ccc(N4CC5CC(C4)N5C(C)C)cc3)nc2n1-c1ccc2c(n1)[C@H](O)C1(CC2)CC1 [Compound 39b]", "pIC50": 6.14}

Q. Report pIC50 for C=CCn1c(=O)c2cnc(Nc3ccc(N4CCC(N(C)C)CC4)c(C)c3)nc2n1-c1ccc2c(n1)C(C)(O)C1(CC1)C2 (racemic) [Compound 15] please.
A. 6.12

* * *

- TEST_METHOD_NOTES: Metabolic stability in liver microsomes, rat
- Type: in vitro ADME
Recorded T1/2 liver microsomes Rat, one value per entry.

Example results:
{"MOLECULE": "C=CCn1c(=O)c2cnc(Nc3ccc(N4CCC5(CCN(C)CC5)CC4)cc3)nc2n1-c1ccc2c(n1)[C@](C)(O)C1(CC2)CC1 (racemic)", "T1/2 liver microsomes Rat": ">2 h"}
{"MOLECULE": "C=CCn1c(=O)c2cnc(Nc3ccc(N4CCN(C)CC4)cc3)nc2n1-c1ccc2c(n1)[C@H](O)C1(CC2)CC1 (single isomer, unassigned)", "T1/2 liver microsomes Rat": ">2 h"}

Here is the next item to consider.
Q. Report T1/2 liver microsomes Rat for [2H][C@]1(O)c2nc(-n3c4nc(Nc5ccc(N6CCC7(CCN(C)CC7)CC6)cc5)ncc4c(=O)n3CC=C)ccc2CCC12CC2 [Compound 37b] please.
A. >2 h

* * *

- SUBJECT_OF_TEST: Wee1 protein (Homo sapiens (Human))
pIC50: −log10 of the molar value.
MEASUREMENT_LABEL: pIC50

{"COMPOUND": "C=CCn1c(=O)c2cnc(Nc3ccc(N4CCC(N(C)C)CC4)cc3)nc2n1-c1ccc2c(n1)[C@@](C)(O)C1(CC2)CC1 [Compound 65a]", "SUBJECT_OF_TEST": "Wee1 protein (Homo sapiens (Human))", "RESULT": "8.00 to 8.30"}
{"COMPOUND": "C=CCn1c(=O)c2cnc(Nc3ccc(N4CCC5(CCN(C)CC5)CC4)cc3)nc2n1-c1ccc2c(n1)[C@H](O)C1(CC2)CC1 [Compound 38b]", "SUBJECT_OF_TEST": "Wee1 protein (Homo sapiens (Human))", "RESULT": "8.00 to 8.30"}
{"COMPOUND": "C=CCn1c(=O)c2cnc(Nc3ccc(N4CC5CC(C4)N5C(C)C)cc3)nc2n1-c1ccc2c(n1)[C@H](O)C1(CC2)CC1 [Compound 39b]", "SUBJECT_OF_TEST": "Wee1 protein (Homo sapiens (Human))", "RESULT": "8.00 to 8.30"}

Q. Report pIC50 for C=CCn1c(=O)c2cnc(Nc3ccc(N4CCN(C)CC4)cc3)nc2n1-c1ccc2c(n1)[C@@](O)(CC)CC2 [ZnC3, reference compound] please.
A. 7.00 to 8.00

Q. # iterate: C=CCn1c(=O)c2cnc(Nc3ccc(N4CCN(C)CC4)cc3)nc2n1-c1ccc2c(n1)C(C)(O)C1(CC1)C2 (centres unmarked) [Compound 3]
A. 8.00 to 8.30

Q. # iterate: C=CCn1c(=O)c2cnc(Nc3ccc(N4CCC5(CCN(C)CC5)CC4)cc3)nc2n1-c1ccc2c(n1)[C@](C)(O)C1(CC2)CC1 (single isomer, unassigned) [Compound 44a]
A. ≥ 8.30

Q. # iterate: C=CCn1c(=O)c2cnc(Nc3ccc(N4CC5CC(C4)N5C)cc3)nc2n1-c1ccc2c(n1)C(C)(O)C1(CC2)CC1 (centres unmarked) [Compound 7]
A. ≥ 8.30

Q. # iterate: C=CCn1c(=O)c2cnc(Nc3ccc(N4CCN(C)CC4)cc3)nc2n1-c1ccc2c(n1)C(O)(C(F)(F)F)C1(CC1)C2 (centres unmarked) [Compound 32]
A. 8.00 to 8.30
